EXPERIMENTAL SYSTEM: SARS-CoV-2 WA-1 spike receptor binding domain (RBD) (SARS-CoV-2 WA-1 (S identical to …, UniProt P0DTC2))
TEST NAME: BLI
ENDPOINT NAME: Kd
Reply with a number, then the unit it belongs to.

Data request: # return recorded Kd for entry 6D6 monoclonal antibody (antibody, V domains shown) VH: EVQLQQSGAELVKPGASVKLSCTTSGFNIIDTYMHWVKQRPEEGLEWIGGIDPVNGNSEYDPKFQDKATITADTSSNTAYLHLSRLTSEDTAVYYCASAHYYGSSSSFPYWGQGTDLVTVS VL: DIVMTQSQKFMSTSVGDRVSVTCKASQNVGTHVAWYQQKPGQSPKALIYSASYRYSGVPDRFTGSGVGTDFTLTITNVQSEDLAEYFCQQYNSYFTFGSGTKLEIK
Data returned: 3.62 nM

Data request: # return recorded Kd for entry ION-300 monoclonal antibody (antibody, V domains shown) VH: QVQLVQSGAEVKKPGESLKISCKGSGYSFTSYWIGWVRQMPGKGLEWMGIIYPGDSDTRYSPSFQGQVTISADKSISTAYLQWSSLKASDTAMYYCARHPSPYYYGSGSYSGGFDYWGQGTLVTVSS VL: DIVMTQSPGTLSLSPGERATLSCRASQSVSSSYLAWYQQKPGQAPRLLIYGASTRATGIPARFSGSGSGTEFTLTISSLQSEDFAVYYCQQYDNWPLMHTFGQGTKLEIK
Data returned: 3.65 nM

Data request: # return recorded Kd for entry 7D6 monoclonal antibody (antibody, V domains shown) VH: EVQLQQSGAELVRPGASVKLSCTASGFNIKDTYIHWVKQRPEQGLEWIGRIDPGDGDTEYDPSFQGKATITADTSSNTAYLELSSLTSEDTAVYYCTRFYDYVDYGMDYWGQGTSVTVSS VL: DIQMTQSPASLSASVGETVTITCRASGNIHNYLAWYQQKQGKSPQLLVYNAKTLADGVPSRFSGSGSGTQYSLKINSLQPEDFGSYYCQHFWSTPPWTFGGGTKLEVK
Data returned: 3.41 nM
